- protocol description: Antioxidant activity of the compound assessed as inhibition of ABTS radicals at 9 uM after 20 mins by spectrophotometric analysis
- Assay type: functional

structure smiles string | inhibition / %
O=C(O)c1cc(O)c(O)c(O)c1 | 61.6
Oc1ccc2cc[nH]c2c1 | 83
Oc1cc2cc[nH]c2cc1O | 54.4
Oc1ccc2[nH]ccc2c1 | 79.8

====

- protocol description: Antioxidant activity of the compound assessed as inhibition of ABTS radicals at 33 uM after 20 mins by spectrophotometric analysis
- Assay type: functional

structure smiles string | inhibition
O=C(O)/C=C/c1ccc(O)c(O)c1 | > 93.4%
O=C(O)c1cc(O)c(O)c(O)c1 | > 93.9%
c1ccc2[nH]ccc2c1 | 25.6%
Oc1ccc2[nH]ccc2c1 | > 90.1%
Oc1ccc2cc[nH]c2c1 | > 89.8%
